// provenance: patent US20230181719A1

Target: T1, αvβ6 integrin (UniProt P06756 31-992; P18564 22-707, limits assumed)
T1 construct: Coated on microtiter plates
T1 sequence (P06756 31-992 limits assumed, chain 1 of 2): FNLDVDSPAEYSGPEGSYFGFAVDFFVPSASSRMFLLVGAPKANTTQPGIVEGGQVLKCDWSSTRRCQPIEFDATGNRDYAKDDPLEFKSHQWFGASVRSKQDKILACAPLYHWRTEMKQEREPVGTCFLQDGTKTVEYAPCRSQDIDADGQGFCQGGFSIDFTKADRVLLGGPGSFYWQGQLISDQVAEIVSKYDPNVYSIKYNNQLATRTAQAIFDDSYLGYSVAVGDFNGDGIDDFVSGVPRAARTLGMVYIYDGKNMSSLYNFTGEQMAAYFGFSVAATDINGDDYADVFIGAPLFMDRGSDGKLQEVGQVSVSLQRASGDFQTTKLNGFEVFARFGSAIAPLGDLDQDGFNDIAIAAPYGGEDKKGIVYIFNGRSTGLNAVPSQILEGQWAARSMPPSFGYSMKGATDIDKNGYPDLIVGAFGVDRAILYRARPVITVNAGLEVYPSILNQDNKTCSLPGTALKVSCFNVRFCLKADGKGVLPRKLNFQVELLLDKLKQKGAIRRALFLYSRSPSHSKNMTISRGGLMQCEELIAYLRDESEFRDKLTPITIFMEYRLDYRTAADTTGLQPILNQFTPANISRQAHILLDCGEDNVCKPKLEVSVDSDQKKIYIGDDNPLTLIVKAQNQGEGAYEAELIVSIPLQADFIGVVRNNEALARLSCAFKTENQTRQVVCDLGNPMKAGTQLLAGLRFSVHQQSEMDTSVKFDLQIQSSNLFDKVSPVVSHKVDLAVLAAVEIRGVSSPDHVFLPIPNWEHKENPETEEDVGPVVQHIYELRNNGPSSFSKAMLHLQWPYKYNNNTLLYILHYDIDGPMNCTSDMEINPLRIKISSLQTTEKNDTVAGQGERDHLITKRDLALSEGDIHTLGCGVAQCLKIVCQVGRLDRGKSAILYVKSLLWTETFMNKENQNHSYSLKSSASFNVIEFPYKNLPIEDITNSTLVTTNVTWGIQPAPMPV
T1 sequence (P18564 22-707 limits assumed, chain 2 of 2): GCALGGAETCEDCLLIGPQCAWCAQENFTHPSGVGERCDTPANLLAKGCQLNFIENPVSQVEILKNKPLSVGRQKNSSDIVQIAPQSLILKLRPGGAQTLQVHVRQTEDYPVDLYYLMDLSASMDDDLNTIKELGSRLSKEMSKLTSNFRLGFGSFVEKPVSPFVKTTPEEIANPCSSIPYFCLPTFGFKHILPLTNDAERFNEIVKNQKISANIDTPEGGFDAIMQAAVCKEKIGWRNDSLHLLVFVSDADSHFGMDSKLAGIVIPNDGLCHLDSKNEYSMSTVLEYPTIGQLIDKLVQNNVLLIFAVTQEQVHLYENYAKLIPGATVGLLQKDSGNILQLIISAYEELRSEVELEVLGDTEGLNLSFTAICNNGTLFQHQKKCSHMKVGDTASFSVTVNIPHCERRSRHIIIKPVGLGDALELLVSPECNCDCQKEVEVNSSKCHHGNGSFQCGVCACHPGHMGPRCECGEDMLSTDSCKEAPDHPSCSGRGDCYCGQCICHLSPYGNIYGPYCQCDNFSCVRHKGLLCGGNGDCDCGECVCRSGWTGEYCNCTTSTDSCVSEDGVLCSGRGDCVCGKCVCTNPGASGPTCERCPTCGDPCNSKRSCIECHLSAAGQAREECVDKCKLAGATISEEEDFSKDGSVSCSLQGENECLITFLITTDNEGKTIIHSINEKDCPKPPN
Assay: competitive binding assay, integrin-coated plates; competitor probe acetyl-CisoDGRCG/streptavidin-peroxidase
pKi: −log10 of the molar value. Starred links: 1 amine or outer side, 2 acyl side, 3 side chain; linkers in the order of their positions; H or OH if unused. Positions of bridges follow the written chain, without caps; N, C: chain ends. Non-standard residues stand in square brackets, D forms with d. No end group written: not given here. βAsp = O=C(O)[C@H](CC(=O)[*:2])N[*:1]
propertyMeasured: pKi

binder	valuePrefix	valueReported
Ac-C[βAsp]GRCGVRY (disulfide 1-5) [acetyl-CisoDGRCGVRY peptide]	=	8.30
SC[βAsp]GRCGVRY (disulfide 2-6) [SCisoDGRCGVRY peptide]	=	7.60
SCNGRCGVRY (disulfide 2-6, Synthetic peptide corresponding to the N-terminal region of human S-NGR-TNF) [SCNGRCGVRY peptide]	<	5.00
SCDGRCGVRY [SCDGRCGVRY peptide]	=	5.26
C[βAsp]GRCGVRY (disulfide 1-5) [CisoDGRCGVRY peptide]	=	6.88
